- Tested on: HEK293
- EXPERIMENT: Cytotoxicity against HEK293 cells assessed as reduction in cell viability at 10 to 100 uM incubated for 24 hrs by XTT assay
- Type: toxicity, cell-based
- STATED CONDITIONS: human, hek293, 24 h, dose 10-100 µM
Starred links: 1 amine or outer side, 2 acyl side, 3 side chain; linkers in the order of their positions; H or OH if unused. Non-standard residues stand in square brackets, D forms with d. Residues, ends and D or L forms follow the SMILES beside them. εLys = N[C@@H](CCCCN[*:1])C(=O)[*:2]
MEASURED ATTRIBUTE: Activity

1. CC(C)C[C@H](NC(=O)[C@H](CC(C)C)NC(=O)[C@H](CCCCN)NC(=O)[C@H](CC(C)C)NC(=O)[C@H](CC(C)C)NC(=O)[C@H](CCCCN)NC(=O)[C@H](CCCCN)NC(=O)[C@H](CC(C)C)NC(=O)[C@H](CC(C)C)NC(=O)[C@H](CCCCN)NC(=O)[C@H](CCCCN)NC(=O)[C@H](CC(C)C)NC(=O)[C@H](CC(C)C)NC(=O)[C@@H](N)CCCCNC(=O)[C@@H](N)CC(C)C)C(N)=O (H-K(Leu)LLKKLLKKLLKLL-NH2); Toxic
2. CC(C)C[C@H](NC(=O)[C@H](CC(C)C)NC(=O)[C@@H](N)CCCCNC(=O)[C@H](CC(C)C)NC(=O)[C@H](CC(C)C)NC(=O)[C@H](CCCCN)NC(=O)[C@H](CCCCN)NC(=O)[C@H](CC(C)C)NC(=O)[C@H](CC(C)C)NC(=O)[C@H](CCCCN)NC(=O)[C@H](CCCCN)NC(=O)[C@H](CC(C)C)NC(=O)[C@H](CC(C)C)NC(=O)[C@H](CCCCN)NC(=O)[C@@H](N)CC(C)C)C(N)=O (H-LKLLKKLLKKLL[εLys]LL-NH2); Toxic
3. CC(C)C[C@H](NC(=O)[C@H](CC(C)C)NC(=O)[C@H](CCCCN)NC(=O)[C@H](CC(C)C)NC(=O)[C@H](CC(C)C)NC(=O)[C@H](CCCCN)NC(=O)[C@H](CCCCN)NC(=O)[C@H](CC(C)C)NC(=O)[C@H](CC(C)C)NC(=O)[C@H](CCCCN)NC(=O)[C@H](CCCCN)NC(=O)[C@H](CC(C)C)NC(=O)[C@H](CC(C)C)NC(=O)[C@H](CCCCN)NC(=O)[C@@H](N)CC(C)C)C(N)=O (H-LKLLKKLLKKLLKLL-NH2); Toxic
